Cytochrome P450 2C9 (Homo sapiens, UniProt P11712) AC50 data
Sequence (P11712 whole entry): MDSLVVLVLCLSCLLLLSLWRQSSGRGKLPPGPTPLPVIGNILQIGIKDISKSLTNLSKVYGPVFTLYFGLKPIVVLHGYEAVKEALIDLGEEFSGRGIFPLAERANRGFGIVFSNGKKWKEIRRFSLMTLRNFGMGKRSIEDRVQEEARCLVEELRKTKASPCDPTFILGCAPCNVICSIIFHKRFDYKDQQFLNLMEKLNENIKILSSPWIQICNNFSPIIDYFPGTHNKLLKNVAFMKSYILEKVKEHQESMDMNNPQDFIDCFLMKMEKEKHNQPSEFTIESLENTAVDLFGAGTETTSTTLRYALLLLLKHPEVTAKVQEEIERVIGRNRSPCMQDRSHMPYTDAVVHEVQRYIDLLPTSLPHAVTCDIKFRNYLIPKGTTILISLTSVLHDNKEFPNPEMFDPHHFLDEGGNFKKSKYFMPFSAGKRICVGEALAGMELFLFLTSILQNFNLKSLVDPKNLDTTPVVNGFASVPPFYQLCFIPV

COMPOUND	MEASURED ENDPOINT	RESULT
Cc1ccc(-c2csc(N/N=C/c3ccco3)n2)cc1	AC50	20 µM (inconclusive)
CSc1[nH]c(-c2ccc(C)cc2)nc1S(=O)(=O)c1ccccc1	AC50	11.2 µM (inconclusive)
CCc1ccc(N2CC(C)Cn3c2nc2c3c(=O)n(CCN3CCOCC3)c(=O)n2C)cc1 (stereo unspecified)	AC50	0.178 µM (inconclusive)
CC[C@H]1C2=C3C(CC[C@H]4C(OC)OC[C@](C)([C@@H]34)N(C(=O)OC(C)(C)C)C2)C(CO)C1CO (stereo partly specified)	AC50	25.1 µM (inconclusive)
CCOC(=O)c1ccc(-c2ccc(/C=C(\C#N)C(=O)NCC3CCCO3)o2)cc1 (stereo unspecified)	AC50	5.62 µM (inconclusive)

// batch mode: one AC50 value per listed entry
1. Cc1ccc(/C=N\Nc2nc3cc(Cl)ccc3[nH]2)o1
2. CC(C)C12CC[C@@]3(CC[C@H]4[C@@](C)(CCC[C@]4(C)C(=O)O)[C@@H]3C1)[C@@H](CN)C2
3. C[C@@H](C(=O)Nc1ccc2ccccc2c1)[C@@H]1C[C@@]1(C)[C@@H](NC(=O)c1ccncc1Cl)c1ccccc1
4. O=C(CSc1ccc(Cl)cc1)Nc1cccc(NC(=O)c2ccco2)c1

7.08 µM (inconclusive)
1.26 µM (inconclusive)
39.8 µM (inconclusive)
5.01 µM (inconclusive)

Would you be so kind as to report AC50 for each listed record?
1. CCc1nc2c(c(SC)nn2-c2ccccc2)c(N)c1C(=O)OC
2. O=C(O)c1ccccc1-c1ccccc1C(=O)Nc1ccccc1
3. Cc1cc(N)c2ccccc2[n+]1CCCCCCCCCCCCCC[n+]1c(C)cc(N)c2ccccc21
4. Cc1ccc(S(=O)(=O)c2cc3ccccc3o/c2=N\c2ccc3c(c2)OCO3)cc1

1.12 µM (inconclusive)
35.5 µM (inconclusive)
39.8 µM (inconclusive)
3.55 µM (inconclusive)

Required: AC50, one value per compound below.
1. O=C(CCc1ccccc1)Nc1nncs1
2. O=c1c(-c2cccs2)nc2cnc(N3CCNCC3)nc2n1-c1ccccc1
3. COc1ccc(C2=C(C#N)C(=O)OC2)cc1

31.6 µM (inconclusive)
20 µM (inconclusive)
39.8 µM (inconclusive)

Numbers sourced from ChEMBL document CHEMBL1201862.
